Target: T1, Human α-parvin-CHC (residues 242–372) (human, UniProt Q9NVD7 242-372)
T1 chain: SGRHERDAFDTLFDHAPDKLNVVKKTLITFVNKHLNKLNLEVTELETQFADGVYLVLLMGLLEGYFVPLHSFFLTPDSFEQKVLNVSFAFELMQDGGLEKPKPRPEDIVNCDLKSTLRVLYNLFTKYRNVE
Assay: FP
Where no end group is shown, it is not given here.
recordedEndpoint: pKd
Please treat pKd as minus the base-10 logarithm of the molar concentration.

{"columns": ["binder", "pKd"],
 "data": [
  ["SDWEVDDLLCSLLSPPA (also: N-terminal FITC-Ahx only in labelled form) [CREB3 LD motif peptide]", 4.00],
  ["SASSATRELDELMASLSD (also: N-terminal FITC-Ahx only in labelled form) [Paxillin LD4 peptide]", 4.61],
  ["ATDELDALLASLTENLID (also: N-terminal FITC-Ahx only in labelled form, predicted LD motif of human EPB41L5 (Band 4.1-like protein 5); also called E41L5; YMO1; source: synthetic peptide, bought: GenScript) [EPB41L5 (Band 4.1-like protein 5) LD motif peptide]", 4.55],
  ["SQEEIDKLLMDLESFSQ (also: N-terminal FITC-Ahx only in labelled form) [PPP2R3A LD motif peptide]", 4.63],
  ["EAWDLDDILQSLQGQ (also: N-terminal FITC-Ahx only in labelled form, predicted LD motif of human C16orf71; also called CP071; source: synthetic peptide, bought: GenScript) [C16orf71 LD motif peptide]", 4.28]
]}

Now consider the entry below.
INPUT: Please give measured pKd of the following entry: EDVLDELLQYLGVT (also: N-terminal FITC-Ahx only in labelled form, predicted LD motif of human RALGAPA1; also called RGPA1; source: synthetic peptide, bought: GenScript) [RALGAPA1 LD motif peptide]
OUTPUT: 4.31
